// reported inhibition per item
# TARGET ENTITY: Bifunctional protein GlmU (Mycobacterium tuberculosis (strain ATCC 25618 / H37Rv)) (UniProt P9WMN3)
# Sequence (P9WMN3 whole entry, looked up): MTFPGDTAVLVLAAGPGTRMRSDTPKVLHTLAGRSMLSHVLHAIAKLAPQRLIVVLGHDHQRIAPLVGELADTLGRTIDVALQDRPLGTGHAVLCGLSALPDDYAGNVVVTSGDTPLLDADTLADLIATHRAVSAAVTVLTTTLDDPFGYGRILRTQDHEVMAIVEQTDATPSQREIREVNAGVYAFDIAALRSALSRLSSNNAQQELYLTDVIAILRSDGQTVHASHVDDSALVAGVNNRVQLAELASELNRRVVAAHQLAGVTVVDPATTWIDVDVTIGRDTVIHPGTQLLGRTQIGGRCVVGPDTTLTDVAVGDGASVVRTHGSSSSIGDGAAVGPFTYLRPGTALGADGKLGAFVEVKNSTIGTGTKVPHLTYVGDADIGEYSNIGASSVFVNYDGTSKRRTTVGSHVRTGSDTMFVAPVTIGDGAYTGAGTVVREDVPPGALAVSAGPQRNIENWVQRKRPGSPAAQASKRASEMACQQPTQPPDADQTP
# PROTOCOL NOTES: inhibition of mycobacterial GlmU enzyme – biochemical, glucosamine-1-phosphate acetyltransferase (AID 1376);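 also: 0% = complete reaction with vehicle and 100% = reaction without substrate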
# DETAILS: M. tuberculosis GlmU acetyltransferase enzyme assay; active compounds read high;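 tested at 30 µM in the primary screen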
The whole screen tested about 220,000 compounds, of which about 530 (0.24%) were called active. This excerpt belongs to a sample that is enriched for actives. Measured potencies and affinities stand elsewhere.
REPORTED ENDPOINT: inhibition (%)

| COMPOUND | REPORTED ENDPOINT | RECORDED VALUE |
| --- | --- | --- |
| CCOC(=O)C1(C)C=C(Nc2ccc(O)cc2)C(=O)N1c1ccc(O)cc1 (stereo not given) | inhibition | 9.21 |
| CN(C)S(=O)(=O)c1ccc(C(=O)NCc2ccco2)cc1 | inhibition | 7.54 |
| Cc1ccc2c(C(=O)CN3CCCC3)c(C)[nH]c2c1 | inhibition | -5.2 |
| Cc1ccc(C(=O)COC(=O)CNS(=O)(=O)c2ccccc2)cc1[N+](=O)[O-] | inhibition | -0.84 |
| Cc1ccc(N2CCN(C(=O)Nc3cccc([N+](=O)[O-])c3)CC2C)cc1 (stereo not given) | inhibition | 5.55 |
| CCOC(=O)C1(C)C=C(Nc2ccc(C)cc2)C(=O)N1c1ccc(C)cc1 (stereo not given) | inhibition | -2.18 |
| Cc1ccc(-c2nc(SCC(=O)NCC3CCCO3)c(-c3ccc(C)cc3)[nH]2)cc1 (stereo not given) | inhibition | -0.94 |
| COc1ccc(NCC(=O)Nc2ccccc2C#N)cc1Cl | inhibition | 16.5 |
| O=c1[nH][nH]cc1C=Nc1ccccc1O | inhibition | -0.91 |
| Cc1cc(N2CCC(C(=O)NC3CC3)CC2)nc(-c2ccccc2)n1 | inhibition | 1.37 |
| COc1ccc(NC(=O)CNc2cccc(C#N)c2)cc1Cl | inhibition | 0.65 |
| N#C/C(=C/c1cccn1-c1cccc(C(=O)O)c1)c1ccc(F)cc1 | inhibition | 2.91 |
| Nc1c(C(=O)Nc2ccccc2)sc2nc3c(c(-c4ccco4)c12)CCC3 | inhibition | -1.21 |
| C#CCNC(=O)C1CCN(c2cc(C)nc(-c3ccccc3)n2)CC1 | inhibition | -1.53 |
| Cc1cccc(CSc2nc3c(cc2C#N)CN(C)CC3)c1 | inhibition | -4.03 |
| Cc1ccc2c(C(=O)CN3CCOCC3)c(C)[nH]c2c1 | inhibition | 2.67 |
| CC(=O)Nc1ccc(Nc2nc(C)c([N+](=O)[O-])c(Nc3ccc(NC(C)=O)cc3)n2)cc1 | inhibition | -3.57 |
| CC(CCc1ccccc1)NC(=O)c1ccccc1 (stereo not given) | inhibition | -2.82 |
| COc1cccc(OCC(Cn2cnc3ccccc32)OC(C)=O)c1 (stereo not given) | inhibition | -0.44 |
| N#Cc1ccccc1CN1C(=O)S/C(=C/c2cccn2-c2cccc(C(=O)O)c2)C1=O | inhibition | 2.69 |
| Cc1cc(C)c(C(=O)COC(=O)c2cc([N+](=O)[O-])ccc2NCCO)cc1C | inhibition | 0.91 |
| CC(CCc1ccccc1)NC(=O)c1cccc([N+](=O)[O-])c1 (stereo not given) | inhibition | 13.1 |
| CN1CCc2nc(SCc3ccccc3Br)c(C#N)cc2C1 | inhibition | -4.18 |
| CCN(c1ccc(NS(=O)(=O)c2cc(Cl)ccc2Cl)cc1)C(C)C | inhibition | -7.63 |
| COc1ccc(Br)cc1S(=O)(=O)N1CCOCC1 | inhibition | -4.63 |
| Cc1ccc(C(=O)NC(C)CCc2ccccc2)cc1[N+](=O)[O-] (stereo not given) | inhibition | 3.64 |
| CCn1c2ccccc2c2cc(/C=N/n3cn[nH]c3=S)ccc21 | inhibition | 13 |
| CC(C)c1nnc(NC(=O)CCC(=O)N2CCN(Cc3ccccc3)CC2)s1 | inhibition | 3.04 |
| O=C(Cc1cc(=O)[nH][nH]1)N/N=C/C=C/c1ccccc1 | inhibition | 3.75 |
| O=C1N/C(=C/c2cccn2-c2ccc(F)cc2)C(=O)N1Cc1ccccc1 | inhibition | -0.61 |
| N#CCCn1cc(C(=O)Nc2ccccc2Br)c(-c2cc3ccccc3o2)n1 | inhibition | -0.21 |
| COc1ccc(CCNC(=O)COC(=O)CCC(=O)c2ccc(F)cc2)cc1 | inhibition | 1.09 |
| O=C(CSc1nnc(-c2ccc(OC(F)F)cc2)o1)NCc1cccs1 | inhibition | -1.34 |
| Cc1ccc(C(=O)COC(=O)CNC(=O)C(c2ccccc2)c2ccccc2)cc1[N+](=O)[O-] | inhibition | 30.6 |
| CN1CCc2nc(SCc3cccc(Br)c3)c(C#N)cc2C1 | inhibition | 13 |
| Cc1ccc(C[n+]2cccc(-c3ccccc3)c2)c(C)c1 | inhibition | -2.52 |
| N#CC(C#N)=Cc1cccn1-c1ccc(S(N)(=O)=O)cc1 | inhibition | -1.86 |
| CC(=O)c1ccc(N2CCN(C(=S)Nc3cc(C)ccc3C)CC2)cc1 | inhibition | -4.28 |
| CC(=O)Nc1ccc(Nc2nc(C)c([N+](=O)[O-])c(Nc3ccccc3)n2)cc1 | inhibition | 5.98 |
| CC(NCC(O)COCc1ccc(Cl)cc1)c1ccccc1 (stereo not given) | inhibition | -4.31 |
| Cc1cc(N2CCC(C(=O)NC3CCCCC3)CC2)nc(-c2ccccc2)n1 | inhibition | 13.9 |
| Cc1ccc(C(=O)NCC(=O)OCC(=O)c2ccc(C)c([N+](=O)[O-])c2)cc1 | inhibition | -3.78 |
| CCOc1ccc(Br)cc1S(=O)(=O)N1CCCC1 | inhibition | -3.03 |
| Cc1ccc2c(C(=O)CN3CCN(c4ccccc4)CC3)c(C)[nH]c2c1 | inhibition | 14.3 |
| COc1ccc(Br)cc1S(=O)(=O)N1CCCC1 | inhibition | 14.1 |
